# Test system: E. coli 0-111
# Method summary: Minimal inhibitory concentration (M.I.C.), agar dilution method
# Format: cell-based, Escherichia coli
# Assay context: TSA, inoculum 10^7 /ml
Test readout: minimal inhibitory concentration (M.I.C.)

Some molecules with known minimal inhibitory concentration (M.I.C.) results, for comparison:
Molecule	System under test	Assay result
CCCCNC(=O)O/N=C(\C(=O)NC1C(=O)N2C(C(=O)O)=C(C)CSC12)c1csc(=N)[nH]1 (stereo not drawn) [Example II - 23]	E. coli 0-111	6.25
CNC(=O)O/N=C(\C(=O)NC1C(=O)N2C(C(=O)O)=C(CSc3nnc(CO)n3C)CSC12)c1csc(=N)[nH]1 (stereo not drawn) [Example IV - 5]	E. coli 0-111	≤ 0.2

Next up:
I have this molecule here, CNC(=O)O/N=C(\C(=O)NC1C(=O)N2C(C(=O)[O-])=C(C[n+]3ccc(C(N)=O)cc3)CSC12)c1csc(=N)[nH]1 (stereo not drawn) [Example IV - 2] , and I need its recorded minimal inhibitory concentration (M.I.C.).
0.2

----------
# Test system: C. freundii GN 1706
# Method summary: Minimal inhibitory concentration (M.I.C.), agar dilution method
# Format: cell-based, Citrobacter freundii
# Assay context: TSA, inoculum 10^7 /ml
Items are presented alongside their recorded minimal inhibitory concentration (M.I.C.).
The answer should be a number; do not append a unit.

Some compounds with known minimal inhibitory concentration (M.I.C.) results, for comparison:
> print(dat)
                                   compound  assay.result
1  CNC(=O)O/N=C(\C(=O)NC1C(=O)N2C(C(=O)O)=C(CSc3nnnn3CCO)CSC12)c1csc(=N)[nH]1 (stereo not drawn)          0.39
2  CNC(=O)O/N=C(\C(=O)NC1C(=O)N2C(C(=O)[O-])=C(C[n+]3ccc(C(N)=O)cc3)CSC12)c1csc(=N)[nH]1 (stereo not drawn)          1.56
3  CCCCNC(=O)O/N=C(\C(=O)NC1C(=O)N2C(C(=O)O)=C(COC(C)=O)CSC12)c1csc(=N)[nH]1 (stereo not drawn)          0.39

Next up:
I have this compound here, CNC(=O)O/N=C(\C(=O)NC1C(=O)N2C(C(=O)O)=C(CSc3nnc(CO)n3C)CSC12)c1csc(=N)[nH]1 (stereo not drawn) , and I need its recorded minimal inhibitory concentration (M.I.C.).
0.78

----------
# System: E. coli 0-111
# Method summary: Minimal inhibitory concentration (M.I.C.), agar dilution method
# Assay type: cell-based, Escherichia coli
# Assay context: TSA, inoculum 10^7 /ml
Items are presented alongside their recorded minimal inhibitory concentration (M.I.C.).
The answer should be a number; do not append a unit.

Some molecules with known minimal inhibitory concentration (M.I.C.) results, for comparison:
> print(dat)
                                   molecule  assay.result
1  CCCCNC(=O)O/N=C(\C(=O)NC1C(=O)N2C(C(=O)O)=C(COC(N)=O)CSC12)c1csc(=N)[nH]1 (stereo not shown)          0.05
2  CCNC(=O)O/N=C(\C(=O)NC1C(=O)N2C(C(=O)O)=C(COC(N)=O)CSC12)c1csc(=N)[nH]1 (stereo not shown)         0.024
3  CNC(=O)O/N=C(\C(=O)NC1C(=O)N2C(C(=O)O)=C(C)CSC12)c1csc(=N)[nH]1 (stereo not shown)          0.78

I have this molecule here, CCCCNC(=O)O/N=C(\C(=O)NC1C(=O)N2C(C(=O)O)=C(CSc3nnnn3C)CSC12)c1csc(=N)[nH]1 (stereo not shown) , and I need its recorded minimal inhibitory concentration (M.I.C.).
0.024

I have this molecule here, CCNC(=O)O/N=C(\C(=O)NC1C(=O)N2C(C(=O)O)=C(CSc3nnc(C)s3)CSC12)c1csc(=N)[nH]1 (stereo not shown) , and I need its recorded minimal inhibitory concentration (M.I.C.).
0.2

I have this molecule here, CCNC(=O)O/N=C(\C(=O)NC1C(=O)N2C(C(=O)O)=C(C)CSC12)c1csc(=N)[nH]1 (stereo not shown) , and I need its recorded minimal inhibitory concentration (M.I.C.).
1.56

I have this molecule here, CNC(=O)O/N=C(\C(=O)NC1C(=O)N2C(C(=O)O)=C(CSc3nnnn3C)CSC12)c1csc(=N)[nH]1 (stereo not shown) , and I need its recorded minimal inhibitory concentration (M.I.C.).
0.024

I have this molecule here, O=C(Cc1cccs1)N[C@@H]1C(=O)N2C(C(=O)[O-])=C(C[n+]3ccccc3)CS[C@H]12 [Cephaloridine, reference compound] , and I need its recorded minimal inhibitory concentration (M.I.C.).
1.56

I have this molecule here, CNC(=O)O/N=C(\C(=O)NC1C(=O)N2C(C(=O)O)=C(CSc3nc(C)ns3)CSC12)c1csc(=N)[nH]1 (stereo not shown) , and I need its recorded minimal inhibitory concentration (M.I.C.).
0.39

I have this molecule here, CCCNC(=O)O/N=C(\C(=O)NC1C(=O)N2C(C(=O)O)=C(COC(N)=O)CSC12)c1csc(=N)[nH]1 (stereo not shown) , and I need its recorded minimal inhibitory concentration (M.I.C.).
0.05

I have this molecule here, CCCNC(=O)O/N=C(\C(=O)NC1C(=O)N2C(C(=O)O)=C(COC(C)=O)CSC12)c1csc(=N)[nH]1 (stereo not shown) , and I need its recorded minimal inhibitory concentration (M.I.C.).
0.024

I have this molecule here, CNC(=O)O/N=C(\C(=O)NC1C(=O)N2C(C(=O)O)=C(COC(N)=O)CSC12)c1csc(=N)[nH]1 (stereo not shown) , and I need its recorded minimal inhibitory concentration (M.I.C.).
0.024

I have this molecule here, CC(=O)OCC1=C(C(=O)O)N2C(=O)C(NC(=O)/C(=N\OC(=O)NC(C)C)c3csc(=N)[nH]3)C2SC1 (stereo not shown) , and I need its recorded minimal inhibitory concentration (M.I.C.).
0.024

I have this molecule here, CCCNC(=O)O/N=C(\C(=O)NC1C(=O)N2C(C(=O)O)=C(C)CSC12)c1csc(=N)[nH]1 (stereo not shown) , and I need its recorded minimal inhibitory concentration (M.I.C.).
3.13

I have this molecule here, CC(=O)OCC1=C(C(=O)O)N2C(=O)C(NC(=O)/C(=N\OC(=O)NC3CCCCC3)c3csc(=N)[nH]3)C2SC1 (stereo not shown) , and I need its recorded minimal inhibitory concentration (M.I.C.).
0.024
